Listing of entries alongside the reported efflux ratio at 2 h, 3 μM.
- ASSAY DETAILS: in vitro
- CONDITION PARAMETERS: human, Caco-2, pH 7.4
Just the number.

> print(dat)
                                   compound          recorded.endpoint  observed.result
1  [2H]C([2H])([2H])NC(=O)c1nnc(N2CCN(C(C)C)C2=O)cc1Nc1nc(C)cc(-c2cnn(C)n2)c1OC [Example 8]  efflux ratio at 2 h, 3 μM              0.3

Q: Please list efflux ratio at 2 h, 3 μM recorded for the compound [2H]C([2H])([2H])NC(=O)c1nnc(N2CCN(C3CC3)C2=O)cc1Nc1nc(C)cc(-c2cnn(C)n2)c1OC [Example 9]
Ans: 0.2
